# System: Staph. aureus MS 9861
# testName: antimicrobial activity (MIC), Table I
# Assay type: cell-based
# reportedConditions: Staphylococcus aureus, MS9861; Staph. aureus MS 9861; read-out: MIC
For each entry below, report its MIC value.
Form entry: value (µg/mL) — number only.

Ask | // map CCC1OC(=O)CC(O)C(C)C(OC2OC(C)CC(N(C)C)C2O)C(CC=O)CC(C)C(=O)C=CC(C)=CC1CN1CCCC1 (centres unmarked) [Example 16] to recorded MIC (system: Staph. aureus MS 9861)
Reply | 3.12

Ask | Can you look up MIC on Staph. aureus MS 9861 for CCC1OC(=O)CC(O)C(C)C(OC2OC(C)C(O)C(N(C)C)C2O)C(CC=O)CC(C)C(=O)C=CC(C)=CC1CN(CC)CC (centres unmarked) [Example 5] ?
Reply | 12.5

Ask | Identify the measured MIC of CCC1OC(=O)CC(O)C(C)C(OC2OC(C)CC(N(C)C)C2O)C(CC=O)CC(C)C(=O)C=CC(C)=CC1CN1CCC(=O)CC1 (centres unmarked) [Example 28] for Staph. aureus MS 9861.
Reply | 0.39

Ask | For the record CCC1OC(=O)CC(O)C(C)C(OC2OC(C)C(O)C(N(C)C)C2O)C(CC=O)CC(C)C(=O)C=CC(C)=CC1CN(C)Cc1ccccc1 (centres unmarked) [Example 25] , what value of MIC is listed for Staph. aureus MS 9861?
Reply | 0.2

Ask | Kindly state the measured MIC obtained for CCC1OC(=O)CC(O)C(C)C(OC2OC(C)CC(N(C)C)C2O)C(CC=O)CC(C)C(=O)C=CC(C)=CC1CN1CCOCC1 (centres unmarked) [Example 29] with Staph. aureus MS 9861.
Reply | 0.78

Ask | GET /values?readout=MIC&system=Staph. aureus MS 9861&item= CCC1OC(=O)CC(O)C(C)C(OC2OC(C)C(O)C(N(C)C)C2O)C(CC=O)CC(C)C(=O)C=CC(C)=CC1CN(C)C1CCCCC1 (centres unmarked) [Example 27]
Reply | 3.12

Ask | For the record CCC1OC(=O)CC(O)C(C)C(OC2OC(C)C(O)C(N(C)C)C2O)C(CC=O)CC(C)C(=O)C=CC(C)=CC1CN(C)CCc1ccccc1 (centres unmarked) [Example 26] , what value of MIC is listed for Staph. aureus MS 9861?
Reply | 12.5

Ask | MIC of CCC1OC(=O)CC(O)C(C)C(OC2OC(C)CC(N(C)C)C2O)C(CC=O)CC(C)C(=O)C=CC(C)=CC1CN(CC)C(=O)OC (centres unmarked) [Example 83] on Staph. aureus MS 9861?
Reply | 0.39

###

I'd be grateful if you could share measured MIC for these entries.
# Tested on: B. cereus
# testName: antimicrobial activity (MIC), Table II
# Format: cell-based
# reportedConditions: Bacillus cereus; B. cereus; read-out: MIC
Give the number; µg/mL is assumed, so skip it.

Ask | // query MIC value for entry CCC1OC(=O)CC(O)C(C)C(OC2OC(C)CC(N(C)C)C2O)C(CC=O)CC(C)C(=O)C=CC(C)=CC1CN(CC)CCO (centres unmarked)
Reply | 0.39

Ask | Dear colleague, I am looking for the recorded MIC of the following compound: CCC1OC(=O)CC(O)C(C)C(OC2OC(C)CC(N(C)C)C2O)C(CC=O)CC(C)C(=O)C=CC(C)=CC1COC(=O)CN(C)C (centres unmarked)
Reply | 0.39

Ask | // MIC lookup, key: CCC1OC(=O)CC(O)C(C)C(OC2OC(C)C(O)C(N(C)C)C2O)C(CC=O)CC(C)C(=O)C=CC(C)=CC1CN1CCCCCC1 (centres unmarked)
Reply | 0.39

Ask | So what does the record say about MIC for CCC1OC(=O)CC(O)C(C)C(OC2OC(C)CC(N(C)C)C2O)C(CC=O)CC(C)C(=O)C=CC(C)=CC1CNCC(C)(C)C (centres unmarked) ?
Reply | 0.78

Ask | Endpoint output: MIC of CCC1OC(=O)CC(O)C(C)C(OC2OC(C)CC(N(C)C)C2O)C(CC=O)CC(C)C(=O)C=CC(C)=CC1CNC(C)C (centres unmarked) . Value?
Reply | 0.39

Ask | Given the entry CCC1OC(=O)CC(O)C(C)C(OC2OC(C)CC(N(C)C)C2O)C(CC=O)CC(C)C(=O)C=CC(C)=CC1COC(=O)CN1CCCC1 (centres unmarked) , report its measured MIC.
Reply | 1.56

Ask | If you can, please state the reported MIC value of CCC1OC(=O)CC(O)C(C)C(OC2OC(C)CC(N(C)C)C2O)C(CC=O)CC(C)C(=O)C=CC(C)=CC1CNC1CC1 (centres unmarked) .
Reply | 0.39

Ask | Fill blank: measured MIC of the compound CCC1OC(=O)CC(O)C(C)C(OC2OC(C)CC(N(C)C)C2O)C(CC=O)CC(C)C(=O)C=CC(C)=CC1CN(CC)CC(F)(F)F (centres unmarked) is ____.
Reply | 0.78

Ask | Reported MIC, compound CCC(=O)N(CC)CC1C=C(C)C=CC(=O)C(C)CC(CC=O)C(OC2OC(C)C(O)C(N(C)C)C2O)C(C)C(O)CC(=O)OC1CC (centres unmarked) : ____
Reply | 0.39

Ask | Fill in: MIC of CCC1OC(=O)CC(O)C(C)C(OC2OC(C)CC(N(C)C)C2O)C(CC=O)CC(C)C(=O)C=CC(C)=CC1CN(CC)C(C)=O (centres unmarked) is ___
Reply | 0.39

Ask | Param item = CCC1OC(=O)CC(O)C(C)C(OC2OC(C)CC(N(C)C)C2O)C(CC=O)CC(C)C(=O)C=CC(C)=CC1CN(CC)C(=O)c1cccnc1 (centres unmarked) ; retrieve measured MIC.
Reply | 0.39

Ask | Request the reported MIC associated with CCC1OC(=O)CC(O)C(C)C(OC2OC(C)CC(N(C)C)C2O)C(CC=O)CC(C)C(=O)C=CC(C)=CC1CNC(C)(C)C (centres unmarked)
Reply | 0.39

###

# Test system: E. coli K-12
# testName: antimicrobial activity (MIC), Table I
# Format: cell-based
# reportedConditions: Escherichia coli, K12; E. coli K-12; read-out: MIC
measuredParameter: MIC (µg/mL)
Please reply with the bare figure in µg/mL and do not write the unit itself.

Ask | Any idea what MIC was measured for CCC1OC(=O)CC(O)C(C)C(OC2OC(C)C(O)C(N(C)C)C2O)C(CC=O)CC(C)C(=O)C=CC(C)=CC1CN(C)C (stereo not shown) ?
Reply | 1.56

Ask | Fill in the blank: the reported MIC of CCC1OC(=O)CC(O)C(C)C(OC2OC(C)CC(N(C)C)C2O)C(CC=O)CC(C)C(=O)C=CC(C)=CC1CN1CCN(C)CC1 (stereo not shown) is ____.
Reply | 25

Ask | Data request, read-out MIC, for CCC1OC(=O)CC(O)C(C)C(OC2OC(C)C(O)C(N(C)C)C2O)C(CC=O)CC(C)C(=O)C=CC(C)=CC1CN(C)Cc1ccccc1 (stereo not shown)
Reply | 3.12

Ask | Fill blank: measured MIC of the compound CCC1OC(=O)CC(O)C(C)C(OC2OC(C)C(O)C(N(C)C)C2O)C(CC=O)CC(C)C(=O)C=CC(C)=CC1CN1CCCCC1 (stereo not shown) is ____.
Reply | 1.56

Ask | Need MIC of CCC1OC(=O)CC(O)C(C)C(OC2OC(C)CC(N(C)C)C2O)C(CC=O)CC(C)C(=O)C=CC(C)=CC1CN(CC)CC (stereo not shown) , thanks.
Reply | 0.39

Ask | What does the record list as MIC for CCOC(=O)NCC1C=C(C)C=CC(=O)C(C)CC(CC=O)C(OC2OC(C)CC(N(C)C)C2O)C(C)C(O)CC(=O)OC1CC (stereo not shown) ?
Reply | 12.5

Ask | Name the recorded MIC for CCC1OC(=O)CC(O)C(C)C(OC2OC(C)CC(N(C)C)C2O)C(CC=O)CC(C)C(=O)C=CC(C)=CC1CN1CCCCC1CO (stereo not shown) .
Reply | 0.78

Ask | Field request: MIC | item: CCC1OC(=O)CC(O)C(C)C(OC2OC(C)C(O)C(N(C)C)C2O)C(CC=O)CC(C)C(=O)C=CC(C)=CC1CN(CC)CC (stereo not shown)
Reply | 1.56

Ask | Which value of MIC has been reported for CCC1OC(=O)CC(O)C(C)C(OC2OC(C)CC(N(C)C)C2O)C(CC=O)CC(C)C(=O)C=CC(C)=CC1CN1CCC(=O)CC1 (stereo not shown) in the records?
Reply | 6.25

Ask | Would you mind telling me what MIC value was observed for CCC1OC(=O)CC(O)C(C)C(OC2OC(C)CC(N(C)C)C2O)C(CC=O)CC(C)C(=O)C=CC(C)=CC1CN1CCCC1 (stereo not shown) ?
Reply | 3.12

###

For each entry below, report its MIC value.
# System: E. coli NIHJ
# testName: antimicrobial activity (MIC), Table I
# Type: cell-based
# reportedConditions: Escherichia coli; E. coli NIHJ; read-out: MIC
Hi! Could you send only the number? It should be in µg/mL, unit omitted.

Ask | Consider the molecule shown here: CCCN(CCC)CC1C=C(C)C=CC(=O)C(C)CC(CC=O)C(OC2OC(C)C(O)C(N(C)C)C2O)C(C)C(O)CC(=O)OC1CC (centres unmarked) [Example 6] What is its recorded MIC?
Reply | 0.78

Ask | // query MIC value for entry CCC1OC(=O)CC(O)C(C)C(OC2OC(C)C(O)C(N(C)C)C2O)C(CC=O)CC(C)C(=O)C=CC(C)=CC1CN(C)C (centres unmarked) [Example 4]
Reply | 0.78

Ask | MIC for CCC1OC(=O)CC(O)C(C)C(OC2OC(C)CC(N(C)C)C2O)C(CC=O)CC(C)C(=O)C=CC(C)=CC1CN1CCOCC1 (centres unmarked) [Example 29] ?
Reply | 3.12

Ask | Could you share which MIC value was measured for CCC1OC(=O)CC(O)C(C)C(OC2OC(C)CC(N(C)C)C2O)C(CC=O)CC(C)C(=O)C=CC(C)=CC1CN(CC)C(=O)OC (centres unmarked) [Example 83] ?
Reply | 6.25

Ask | # get_value(readout='MIC', item= CCC1OC(=O)CC(O)C(C)C(OC2OC(C)CC(N(C)C)C2O)C(CC=O)CC(C)C(=O)C=CC(C)=CC1CN1CCCCCC1 (centres unmarked) [Example 18] )
Reply | 0.39

Ask | Item under review: CCC1OC(=O)CC(O)C(C)C(OC2OC(C)C(O)C(N(C)C)C2O)C(CC=O)CC(C)C(=O)C=CC(C)=CC1CN(CC)CC (centres unmarked) [Example 5] . Reported MIC?
Reply | 1.56

Ask | Would you kindly share the measured MIC for CCC1OC(=O)CC(O)C(C)C(OC2OC(C)CC(N(C)C)C2O)C(CC=O)CC(C)C(=O)C=CC(C)=CC1CN1CCCCCCC1 (centres unmarked) [Example 19] ?
Reply | 0.39

Ask | Bench note: what MIC did CCC1OC(=O)CC(O)C(C)C(OC2OC(C)CC(N(C)C)C2O)C(CC=O)CC(C)C(=O)C=CC(C)=CC1CN1CCC(=O)CC1 (centres unmarked) [Example 28] show?
Reply | 3.12

Ask | Please look up its MIC: CCC1OC(=O)CC(O)C(C)C(OC2OC(C)C(O)C(N(C)C)C2O)C(CC=O)CC(C)C(=O)C=CC(C)=CC1CN(C)CCc1ccccc1 (centres unmarked) [Example 26]
Reply | 3.12

Ask | Please report the recorded MIC for CCC1OC(=O)CC(O)C(C)C(OC2OC(C)CC(N(C)C)C2O)C(CC=O)CC(C)C(=O)C=CC(C)=CC1CN1CCN(C)CC1 (centres unmarked) [Example 32] .
Reply | 3.12

Ask | Suppose we examine the molecule CCC1OC(=O)CC(O)C(C)C(OC2OC(C)C(O)C(N(C)C)C2O)C(CC=O)CC(C)C(=O)C=CC(C)=CC1CN1CCCCC1 (centres unmarked) [Example 13] ; what MIC value has been reported?
Reply | 0.78

Ask | Returns the measured MIC for the input molecule. Input: CCC1OC(=O)CC(O)C(C)C(OC2OC(C)CC(N(C)C)C2O)C(CC=O)CC(C)C(=O)C=CC(C)=CC1CN1CCCC1 (centres unmarked) [Example 16]
Reply | 1.56

Ask | What MIC value was documented for this molecule, CCC1OC(=O)CC(O)C(C)C(OC2OC(C)C(O)C(N(C)C)C2O)C(CC=O)CC(C)C(=O)C=CC(C)=CC1CN(C)C1CCCCC1 (centres unmarked) [Example 27] ?
Reply | 0.78

Ask | Item CCC1OC(=O)CC(O)C(C)C(OC2OC(C)CC(N(C)C)C2O)C(CC=O)CC(C)C(=O)C=CC(C)=CC1CN1CCCCC1CO (centres unmarked) [Example 31] has what recorded MIC?
Reply | 0.39

Ask | // query MIC value for entry CCC1OC(=O)CC(O)C(C)C(OC2OC(C)CC(N(C)C)C2O)C(CC=O)CC(C)C(=O)C=CC(C)=CC1CN1CCCCC1 (centres unmarked) [Example 17]
Reply | 0.78

Ask | Recorded MIC for CCC1OC(=O)CC(O)C(C)C(OC2OC(C)CC(N(C)C)C2O)C(CC=O)CC(C)C(=O)C=CC(C)=CC1CNC(=O)c1ccccc1 (centres unmarked) [Example 76] , please?
Reply | 3.12

Ask | Need MIC, item CCOC(=O)NCC1C=C(C)C=CC(=O)C(C)CC(CC=O)C(OC2OC(C)CC(N(C)C)C2O)C(C)C(O)CC(=O)OC1CC (centres unmarked) [Example 78]
Reply | 3.12

Ask | Can you look up the measured MIC of CCC1OC(=O)CC(O)C(C)C(OC2OC(C)C(O)C(N(C)C)C2O)C(CC=O)CC(C)C(=O)C=CC(C)=CC1CN(C)Cc1ccccc1 (centres unmarked) [Example 25] for me?
Reply | 1.56
